# reported pKd; entries follow
- test target: NOS1, P29475
- Sequence (P29475 9-101): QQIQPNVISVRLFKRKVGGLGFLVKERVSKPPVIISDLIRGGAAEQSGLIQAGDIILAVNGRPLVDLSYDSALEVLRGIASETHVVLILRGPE
- method: holdup assay
- Design: key: below the threshold = too weak to quantify, mostly under pKd 3.1 to 4
- assay context: plain residues with an end cap or a label only (N-terminal biotin on a linker: ttds)
endpoint name: pKd

* DPRNTQTSQI [ABRAXAS2, Q15018] | 3.52
* LCALPKVTTV [AGMAT, Q9BSE5] | 3.7
* SEKHFRETEV [HTLV1-TAX1, P03409] | 4.09
* RTRQRNETQV [HPV51-E6, P26554] | 3.91
